- target of assay: T1, Bfl-1, Q16548
- T1 chain: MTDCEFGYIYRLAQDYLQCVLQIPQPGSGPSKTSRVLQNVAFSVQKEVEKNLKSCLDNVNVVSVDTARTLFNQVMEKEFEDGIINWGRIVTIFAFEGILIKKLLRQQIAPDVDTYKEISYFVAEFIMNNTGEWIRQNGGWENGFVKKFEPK
- test: peptide SPOT array, c-Myc-tagged receptor at 1 uM or 100 nM, anti-c-Myc-Cy3
Please go through the items and note down their SPOT signal as a fraction of Bim BH3's signal on the same receptor and array.
Numbers only.

RQAFYLHTTKLTRIARRLCREILRPW [MTA1] :: 0.72
NATHEEVVHLLRNAGDEVTITVEYLR [SNTG2] :: 0.01

Batch: SPOT signal as a fraction of Bim BH3's signal on the same receptor and array for all items listed.
1. AEVMRQRGINMRYLLKVLELVLRSPA [KIAA0664]
2. LNELYQRAKKLSKAGDNIPEEQPVAS [TMX2]
3. PAKKMTLSEIYRWILDNFPYYKNAGI [FOXJ2]
4. LTETSLISGNLHRILDITSCSVLWLN [FBXW5]

0.49
0.07
0.45
0.07

Batch: SPOT signal as a fraction of Bim BH3's signal on the same receptor and array for all items listed.
1. PSECETLGSNLGHNADLLNENNILAK [ZFP90]
2. KYDPSKYCHNLKKIGEDFSNTIPISS [NOL8]
3. LQLHRVLPPDLKSLGDQYVKDEFRRH [ACN9]
4. EQWAREIGAQDRRMADDLNAQYERRR [BBC3]
5. SATHDEAVQVLKKTGKEVVLEVKYMK [SNTA1]
6. KQMKEDGACLFRAVLDQVYGDQDMHE [OTUD5]

[0.03, 0.05, 0.15, 0.02, 0.05, 0.0567]

Batch: SPOT signal as a fraction of Bim BH3's signal on the same receptor and array for all items listed.
1. AELRLFLAQRDRWLCDSCPASRATCV [NBEAL2]
2. LCKEKPTTALLDKVADNLAIQLAAVT [ILF3]
3. TSRINEVQVNLSLLGDDLLLPAQSTL [SPHKAP]
4. QCPIFRLGDIDRETGDNFSDVAIQGG [P2RX7]
5. SFLSAHCASHDAWFGDSLTSLSQRLQ [TMEM214]
6. KGTAVAICRRDGIFGDTEDVAGKAYT [ATP2A3]

[0.33, 0.02, 0.03, 0.03, 0.06, 0.06]

Batch: SPOT signal as a fraction of Bim BH3's signal on the same receptor and array for all items listed.
1. EERAQNVTRLLRKQAEEVNTEWEKLN [DMD]
2. HPKRKQVTELLLRKGANVNEKNKDFM [TNKS]
3. APEEDFFSIHDRIVGDWTEGLFNACG [CYBB]

1: 0.04; 2: 0.48; 3: 0.03
